Reported pKd values are given for each entry in this list.
SYSTEM: T1, Human CD98 ECD with C-terminal His-tag (human, UniProt P08195 105-529)
T1 construct: also called huCD98 ECD; recombinant human CD98 extracellular domain
T1 sequence: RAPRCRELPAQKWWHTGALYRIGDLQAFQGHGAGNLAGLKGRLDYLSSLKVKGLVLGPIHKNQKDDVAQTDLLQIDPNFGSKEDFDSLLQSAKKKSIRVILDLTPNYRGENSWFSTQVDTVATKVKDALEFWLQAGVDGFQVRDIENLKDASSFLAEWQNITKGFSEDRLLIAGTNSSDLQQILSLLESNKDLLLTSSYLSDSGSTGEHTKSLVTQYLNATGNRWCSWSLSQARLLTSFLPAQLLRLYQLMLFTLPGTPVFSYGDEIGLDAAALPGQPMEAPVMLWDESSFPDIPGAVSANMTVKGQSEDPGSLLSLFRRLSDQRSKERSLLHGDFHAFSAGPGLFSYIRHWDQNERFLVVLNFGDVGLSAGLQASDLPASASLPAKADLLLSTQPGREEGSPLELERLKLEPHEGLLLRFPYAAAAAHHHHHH
PROTOCOL: SPR Biacore, anti-Fc capture of mAb, CD98 ECD analyte
Scale explanation: pKd corresponds to minus log10 of a concentration expressed in moles per litre.

Entry Anti-CD98 rat hybridoma antibody Ab10 (antibody, V domains shown) VH: EVQLVESGGGLVQPGRSLKLSCAASGFTFSDYAMAWVRQAPKKSLEWVATIIYDGRGTYCRDSVKGRFTISRDNAKSTLYLQMDSLRSEDTATYYCARQGDGTYHYWGYFDYWGQGVMVTVSS VL: DIVMTQSPSSLAVSAGETVTINCKSSQSLLSSGNQKNYLAWYQQKPGQSPKLLIYWASTRQSGVPDRFIGSGSGTDFTLTISSVQAEDLAIYYCQQYYDTPYTFGAGTKVDLK : reported pKd = ?
8.70

Further cases:
Could you tell me which pKd is on file for Anti-CD98 murine hybridoma antibody Ab5 (antibody, V domains shown) VH: EVKLVESGGGLVQPGGSLRLSCATSGFTFTDYYMTWVRQPPGKALEWLGFIRNKANGYTTEYSASVKGRFTISRDNSLSILYLQMNTLRAEDSATYYCARASYVNSEGWFAYWGQGTLVTVSA VL: DIVMSQSPSSLAVSVGEKVTMSCKSSQSLLYSSNQKNYLAWYQQKLGQSPKLLIYWASTRESGVPDRFTGSGSGTDFTLTISSVKAEDLAVYYCQHYYSYPRTFGGGTKLEIK ?
8.66
